# ASSAY_REMARKS: chemical genetic growth profiling, strain panel (AID 1159580);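 also: tested at 20 µM; growth read once vehicle control cultures reached saturation at 30 °C; 1 = growth at the plate median or of vehicle wells; lower values mean less growth of the strain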
# REPORTED_CONDITIONS: S. cerevisiae deletion strains, growth OD, locus YJR043C, strain POL32, hits give low values
The whole screen tested about 5,500 compounds, of which about 2,000 (36%) were called active. Another 18% or so got no clear call; they are omitted. Some of the results follow.

| MOLECULE | normalized growth |
| --- | --- |
| Cc1cc(=O)n2[nH]cc(C#N)c2n1 | 1.02 |
| Nc1c2ccccc2nc2ccccc12 | 0.717 |
| Cc1ccc2[nH]c3c(c2c1)CCCC3 | 0.869 |
| O=C(Nc1ccc(Cl)c(Cl)c1)c1ccccc1 | 0.906 |
| Cc1nn(C)c(C)c1NS(=O)(=O)c1cc(Cl)sc1Cl | 1.01 |
| S=C(NCc1ccccc1)Nc1ccc(Cl)c(Cl)c1 | 0.978 |
| CO[C@@]12[C@@H]3NC3CN1C1=C(C(=O)C(N)=C(C)C1=O)[C@@H]2COC(N)=O (some centres not stated) | 0.98 |
| CC(C)=CCCC1(C)C=Cc2c(O)c3c(c(CC=C(C)C)c2O1)OC12C(=CC4CC1C(C)(C)OC2(C/C=C(\C)C(N)=O)C4=O)C3=O (configuration not stated) | 0.981 |
| C/C=C(/C)C(=O)OC1CCC2(C)C3CCC4C5(O)CC(O)C6(O)C(CN7CC(C)CCC7C6(C)O)C5(O)CC42OC13O (configuration not stated) | 0.845 |
| O=C(O)c1ccc(N=Cc2ccc3c(c2)OCO3)cc1 | 0.997 |
| Cc1cccc(NC(=S)NCc2ccncc2)c1 | 1 |
| CC(C)=CCCC1(C)C=Cc2c(O)c3c(c(CC=C(C)C)c2O1)OC12C(=CC4CC1C(C)(C)OC2(C/C=C(/C)C(=O)O)C4=O)C3=O (configuration not stated) | 0.821 |
| COc1cc(N)c(Cl)cc1C(=O)NC1CCN(Cc2ccccc2)CC1 | 0.985 |
| N#CC(C#N)=CNc1cccc(N)n1 | 1.03 |
| CS/C(N)=N\N=C/c1c(F)cccc1Cl | 0.992 |
| Cc1cc(C2=CSC3=NCCN23)ccc1Cl | 0.999 |
| O=C(NC1CCN(Cc2ccc(Cl)c(Cl)c2)CC1)c1ccccc1 | 1.01 |
| CC(C)(C)c1nccc(-c2nn(-c3ccc(F)cc3)ccc2=O)n1 | 1 |
| O=C(O)CSCC(=O)NC1CCN(Cc2ccccc2)CC1 | 1 |
| O=C1CC(CSc2ccc(Cl)cc2)=NN1 | 0.982 |
| O=C(O/N=C\c1ccc2c(c1)OCO2)c1ccccc1Br | 0.926 |
| C/C=C(/C)C(=O)O[C@H]1CC[C@@]2(C)[C@@H]3CC[C@H]4[C@]5(O)C[C@H](O)[C@@]6(O)[C@@H](CN7C[C@@H](C)CC[C@H]7[C@@]6(C)O)[C@]5(O)C[C@@]42O[C@]13O | 1.02 |

----------
# ASSAY_REMARKS: chemical genetic growth profiling, strain panel (AID 1159580);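 also: tested at 20 µM; growth read once vehicle control cultures reached saturation at 30 °C; 1 = growth at the plate median or of vehicle wells; lower values mean less growth of the strain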
# REPORTED_CONDITIONS: S. cerevisiae deletion strains, growth OD, locus YOR136W, strain idh2, hits give low values
Hit rate of the full screen: of about 5,500 compounds, about 2,000 (36%) were called active. Roughly 18% stayed inconclusive and do not appear here. The list shows a part of the results.
QUANTITY: normalized growth

| COMPOUND | QUANTITY | ASSAY_RESULT |
| --- | --- | --- |
| Cc1cn([C@H]2C[C@H](N=[N+]=[N-])[C@@H](CO)O2)c(=O)[nH]c1=O | normalized growth | 1.02 |
| C/C=C(/C)C(=O)O[C@H]1CC[C@@]2(C)[C@@H]3CC[C@H]4[C@]5(O)C[C@H](O)[C@@]6(O)[C@@H](CN7C[C@@H](C)CC[C@H]7[C@@]6(C)O)[C@]5(O)C[C@@]42O[C@]13O | normalized growth | 0.981 |
| Cc1cc(O)c2c(c1)Cc1cccc(O)c1C2=O | normalized growth | 1 |
| Clc1ccccc1C(c1ccccc1)(c1ccccc1)n1ccnc1 | normalized growth | 0.0727 |
| NC(Cc1c[nH]c2ccccc12)C(=O)O (centres undefined) | normalized growth | 0.992 |
| Fc1ccc(C(c2ccccc2)(c2ccccc2F)n2ccnc2)cc1 (centres undefined) | normalized growth | 0.0938 |
| CC(C)(Oc1ccc(CCNC(=O)c2ccc(Cl)cc2)cc1)C(=O)O | normalized growth | 1.02 |
| O=c1cc(CO)occ1O | normalized growth | 1.02 |
| O=C(COc1ccc(Cl)cc1)N1CCN(Cc2ccc3c(c2)OCO3)CC1 | normalized growth | 0.992 |
| CC(=O)OC1CC(OC(C)=O)C2(C)C(CC(OC(C)=O)C3(C)C4=CC(=O)OC(=O)C4(C)CCC32)C1(C)C (centres undefined) | normalized growth | 1.01 |
| CNCc1ccccc1 | normalized growth | 0.996 |
| COc1cc(C(=O)O[C@H]2CC[C@@]3(C)[C@@H]4CC[C@H]5[C@]6(O)C[C@H](O)[C@@]7(O)[C@@H](CN8C[C@@H](C)CC[C@H]8[C@@]7(C)O)[C@]6(O)C[C@@]53O[C@]24O)cc(OC)c1OC | normalized growth | 0.985 |
| NNC(=O)c1ccncc1 | normalized growth | 0.998 |
| C#C[C@]1(O)CCC2C3CCC4=C(CCC(=O)C4)C3CC[C@@]21C (some centres undefined) | normalized growth | 1 |
| Nc1c2c(nc3ccccc13)CCCC2O (centres undefined) | normalized growth | 0.997 |
| C[C@@H]1OC(O[C@H]2C(O[C@H]3CC[C@@]4(C)C(CC[C@]5(C)C4CC=C4C6CC(C)(C)CC[C@]6(C(=O)O)CC[C@]45C)[C@]3(C)CO)OC[C@H](O)[C@@H]2O)[C@H](O)[C@H](O)[C@H]1O (some centres undefined) | normalized growth | 0.0808 |
| C#C[C@]1(O)CCC2C3CCC4=CC(=O)CC[C@@H]4C3CC[C@@]21C (some centres undefined) | normalized growth | 0.997 |
| C/C=C1\[C@H]2C=C(C)C[C@]1(N)c1ccc(=O)[nH]c1C2 | normalized growth | 1.02 |
| CC(C)=CCCC1(C)C=Cc2c(O)c3c(c(CC=C(C)C)c2O1)OC12C(=CC4CC1C(C)(C)OC2(C/C=C(/C)C(=O)O)C4O)C3=O (centres undefined) | normalized growth | 0.962 |

----------
# ASSAY_REMARKS: chemical genetic growth profiling, strain panel (AID 1159580);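 also: tested at 20 µM; growth read once vehicle control cultures reached saturation at 30 °C; 1 = growth at the plate median or of vehicle wells; lower values mean less growth of the strain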
# REPORTED_CONDITIONS: S. cerevisiae deletion strains, growth OD, locus YLR384C, strain iki3, hits give low values
About 2,000 (36%) of roughly 5,500 compounds were called active. Not shown: some 18% with an inconclusive outcome. Some of the results follow.
Reported normalized growth values are given for each entry in this list.
QUANTITY: normalized growth

| COMPOUND | ASSAY_RESULT |
| --- | --- |
| CC1(C)CC[C@@]2(C(=O)O)C(C1)C1=CCC3[C@@]4(C)CC[C@H](O)C(C)(C)C4CC[C@@]3(C)[C@]1(C)C[C@@H]2O (stereo partly specified) | 1.02 |
| Nc1ccc(S(=O)(=O)Nc2ccnn2-c2ccccc2)cc1 | 0.977 |
| CCOP(=S)(OCC)Oc1nc(Cl)c(Cl)cc1Cl | 0.989 |
| Nc1ccc(S(=O)(=O)Nc2cnc3ccccc3n2)cc1 | 1.01 |
| C[C@H]1[C@H](C)CC[C@]2(CO)CC[C@]3(C)C(=CCC4[C@@]5(C)CC[C@H](O)C(C)(C)C5CC[C@]43C)[C@H]12 (stereo partly specified) | 0.974 |
| CC(CC(=O)C1OC1(C)C)C1C(=O)CC2(C)C3=CCC4C(C)(C)C(OC5OCC(O)C(O)C5O)CCC45CC35C(O)CC12C (stereo unspecified) | 1.02 |
| N#CC(O[C@@H]1O[C@H](CO[C@@H]2O[C@H](CO)[C@@H](O)[C@H](O)[C@H]2O)[C@@H](O)[C@H](O)[C@H]1O)c1ccccc1 (stereo partly specified) | 0.96 |
| CC1(C)CCC2(C(=O)O)CCC3(C)C(=CCC4C5(C)CCC(O)C(C)(C)C5C(O)CC43C)C2C1 (stereo unspecified) | 1.04 |
| O=c1oc2cc(O)ccc2s1 | 1.02 |
| CCCOc1ccccc1-c1nc2n[nH]nc2c(=O)[nH]1 | 1 |
| C/C=C(/C)C(=O)O[C@@H]1[C@H](OC(C)=O)[C@@]2(CO)C(CC1(C)C)C1=CCC3[C@@]4(C)CC[C@H](O[C@@H]5O[C@H](C(=O)O)[C@@H](O[C@@H]6O[C@H](CO)[C@@H](O)[C@H](O)[C@H]6O)[C@H](O)[C@H]5O[C@@H]5O[C@H](CO)[C@@H](O)[C@H](O)[C@H]5O)[C@](C)(CO)C4CC[C@@]3(C)[C@]1(C)C[C@H]2O (stereo partly specified) | 1 |
